Below is a list of entries, each paired with its recorded IC50 value.
target-of-assay: Adrenergic receptor alpha-1 (Rattus norvegicus, UniProt P15823+P23944+P43140)
Sequence (P15823 whole entry): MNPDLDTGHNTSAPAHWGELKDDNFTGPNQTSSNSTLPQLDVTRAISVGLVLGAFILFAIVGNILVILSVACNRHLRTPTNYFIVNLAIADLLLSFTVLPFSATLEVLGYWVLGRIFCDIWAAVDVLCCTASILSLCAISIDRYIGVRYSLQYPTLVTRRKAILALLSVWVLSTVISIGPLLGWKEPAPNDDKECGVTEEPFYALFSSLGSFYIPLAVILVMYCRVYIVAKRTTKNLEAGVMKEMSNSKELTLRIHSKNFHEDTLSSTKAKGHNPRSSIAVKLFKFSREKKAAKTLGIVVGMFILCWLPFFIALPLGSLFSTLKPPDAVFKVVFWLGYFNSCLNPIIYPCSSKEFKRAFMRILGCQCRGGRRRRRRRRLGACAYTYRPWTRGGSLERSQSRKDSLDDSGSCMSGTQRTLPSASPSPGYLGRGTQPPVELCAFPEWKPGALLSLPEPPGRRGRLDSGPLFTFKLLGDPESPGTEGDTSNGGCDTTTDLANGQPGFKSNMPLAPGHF
Sequence (P23944 whole entry): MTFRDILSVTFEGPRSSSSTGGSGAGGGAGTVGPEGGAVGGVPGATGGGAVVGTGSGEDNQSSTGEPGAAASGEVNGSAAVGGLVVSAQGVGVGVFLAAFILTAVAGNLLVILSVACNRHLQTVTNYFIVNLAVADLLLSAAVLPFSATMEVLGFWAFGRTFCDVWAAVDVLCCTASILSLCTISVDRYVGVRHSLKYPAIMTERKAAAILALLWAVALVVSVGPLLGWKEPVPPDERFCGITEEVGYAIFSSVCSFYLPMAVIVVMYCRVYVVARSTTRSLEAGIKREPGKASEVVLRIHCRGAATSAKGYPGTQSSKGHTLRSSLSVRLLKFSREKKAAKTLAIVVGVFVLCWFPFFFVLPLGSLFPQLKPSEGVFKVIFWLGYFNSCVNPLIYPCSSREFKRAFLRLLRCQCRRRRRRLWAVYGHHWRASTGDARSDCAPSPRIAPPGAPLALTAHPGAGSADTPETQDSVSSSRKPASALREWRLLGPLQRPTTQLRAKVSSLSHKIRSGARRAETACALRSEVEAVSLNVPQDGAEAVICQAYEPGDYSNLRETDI
Sequence (P43140 whole entry): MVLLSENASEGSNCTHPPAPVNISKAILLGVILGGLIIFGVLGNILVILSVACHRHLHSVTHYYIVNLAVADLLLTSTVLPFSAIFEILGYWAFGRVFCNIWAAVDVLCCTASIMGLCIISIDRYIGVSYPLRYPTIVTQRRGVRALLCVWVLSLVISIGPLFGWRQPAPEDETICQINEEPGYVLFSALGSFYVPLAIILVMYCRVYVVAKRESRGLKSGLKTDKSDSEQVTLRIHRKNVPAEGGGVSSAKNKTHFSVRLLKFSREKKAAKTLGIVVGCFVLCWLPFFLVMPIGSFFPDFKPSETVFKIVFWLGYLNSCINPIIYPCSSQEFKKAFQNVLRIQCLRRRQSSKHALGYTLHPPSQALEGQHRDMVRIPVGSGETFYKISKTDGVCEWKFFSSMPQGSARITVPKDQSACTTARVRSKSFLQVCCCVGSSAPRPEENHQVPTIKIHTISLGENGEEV
protocol-summary: Binding affinity towards Alpha-1 adrenergic receptor in rat brain using [3H]prazosin as radioligand
Format: tissue-based

CCOCCn1cc(C2CCN(CCOc3ccccc3C(=O)O)CC2)c2ccccc21; > 10 µM
O=C(O)c1cccc(CN2CCC(c3cn(Cc4ccc(Cl)s4)c4ccccc34)CC2)c1; > 10 µM
O=C(O)c1cccc(CN2CCC(c3cn(Cc4ccoc4)c4ccccc34)CC2)c1; > 10 µM
COc1ccc(CN2CCC(c3cn(Cc4ccoc4)c4ccccc34)CC2)cc1C(=O)O; > 10 µM

Q. If you can, please state the reported IC50 value of CCOCCn1cc(C2CCN(CCOc3ccccc3C=O)CC2)c2ccccc21 .
A. 10 µM
